test-system: human C-terminal DNMT3A (a.a. 623-908) (Homo sapiens)
Construct: The human C-terminal DNMT3A (a.a. 623-908); made in house
Sequence (Q9Y6K1 627-912 limits assumed): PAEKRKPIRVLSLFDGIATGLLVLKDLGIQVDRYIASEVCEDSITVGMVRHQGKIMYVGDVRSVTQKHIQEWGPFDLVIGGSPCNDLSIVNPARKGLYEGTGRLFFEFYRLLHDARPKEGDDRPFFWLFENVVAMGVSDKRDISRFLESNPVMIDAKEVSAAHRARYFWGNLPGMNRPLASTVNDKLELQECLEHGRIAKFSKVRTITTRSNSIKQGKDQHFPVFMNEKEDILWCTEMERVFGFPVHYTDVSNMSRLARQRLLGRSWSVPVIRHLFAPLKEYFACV
assay-text: DNMT3A assay (restriction-based fluorescence)
Type: biochemical
measurement-setup: read-out: DNMT3A (% of inhibition) 10 μM
inhibition at 10 µM: recorded values
property-label: inhibition at 10 µM (%)

COc1cc2nccc(NCCN3CCC(COc4ccc5c(NCCCc6ccccc6)ncnc5c4)CC3)c2cc1OC [AQ] = 95
COc1ccc2c(NCCN3CCC(COc4ccc5c(NCCCc6ccccc6)ncnc5c4)CC3)ccnc2c1 [AP] = 70
Clc1ccc2c(NCCN3CCC(COc4ccc5c(NCCCc6ccccc6)ncnc5c4)CC3)ccnc2c1 [AO] = 70
CN(CCN1CCC(COc2ccc3c(NCCCc4ccccc4)ncnc3c2)CC1)c1ccnc2ccccc12 [AR] = 66
c1ccc(CCCNc2ncnc3cc(OCC4CCN(CCNc5ccc6ncccc6c5)CC4)ccc23)cc1 [AS] = 60
